Source of measurements: patent US20250042916A1

# Assayed target: human calcitonin receptor (CTR) and RAMP3 (AMY3) in COS-7 cells (Homo sapiens, UniProt O60896+P30988)
# Sequence (P30988 25-474): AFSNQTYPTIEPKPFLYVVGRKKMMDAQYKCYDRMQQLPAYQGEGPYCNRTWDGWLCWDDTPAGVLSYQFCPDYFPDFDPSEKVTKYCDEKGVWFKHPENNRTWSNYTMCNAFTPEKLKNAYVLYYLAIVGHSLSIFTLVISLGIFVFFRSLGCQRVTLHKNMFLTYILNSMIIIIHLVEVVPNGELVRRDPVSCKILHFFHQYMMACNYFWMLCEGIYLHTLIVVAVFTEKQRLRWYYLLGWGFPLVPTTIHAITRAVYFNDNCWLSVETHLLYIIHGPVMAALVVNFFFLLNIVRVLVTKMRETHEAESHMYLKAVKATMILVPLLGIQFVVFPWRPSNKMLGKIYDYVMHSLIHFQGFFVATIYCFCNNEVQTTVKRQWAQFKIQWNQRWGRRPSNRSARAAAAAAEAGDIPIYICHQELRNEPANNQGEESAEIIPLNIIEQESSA
# Sequence (O60896 24-148): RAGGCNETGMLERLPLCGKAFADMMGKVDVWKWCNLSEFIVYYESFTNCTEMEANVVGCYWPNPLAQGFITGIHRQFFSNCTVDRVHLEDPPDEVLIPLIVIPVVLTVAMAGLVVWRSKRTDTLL
# Assay overview: Amylin Receptor cAMP Assay I
# Format: cell-based
# Settings: values marked *: Amylin Receptor cAMP Assay I; COS-7/AMY3 cells; read-out: Amylin Receptor cAMP Stimulation Activity: EC50
pEC50: −log10 of the molar value.
Reported property: pEC50

[
  {
    "Molecule": "Cc1nnc(-c2c(CCc3ccc(F)cc3)nc(CC(C)C)c(C(N)=O)c2-c2ccc(C(=O)N[C@@H]3CCc4ccccc43)s2)o1",
    "Recorded result": 8.39
  },
  {
    "Molecule": "Cc1nnc(-c2c(CCc3ccc(F)cc3)nc(NC(C)C)c(C(N)=O)c2-c2ccc(C(=O)NCc3ccc(F)c(F)c3)s2)o1",
    "Recorded result": 6.27
  },
  {
    "Molecule": "Cc1nnc(-c2c(CCC3CCCCC3)nc(CC(C)C)c(C(N)=O)c2-c2ccc(C(=O)NCc3ccc(F)c(F)c3)s2)o1",
    "Recorded result": 7.70
  }
]

[1] Cc1nnc(-c2c(CC3COc4ccccc4O3)nc(CC(C)C)c(C(N)=O)c2-c2ccc(C(=O)NCc3ccc(F)c(F)c3)s2)o1 (stereo not drawn)
[2] Cc1nc(-c2c(CCc3ccc(F)cc3)nc(CC(C)C)c(C(N)=O)c2-c2ccc(C(=O)NCc3ccc(F)c(F)c3)s2)no1
Higher pEC50: 1 or 2 ? Let me know the label of the one you choose. 2
(2: 7.16, 1: 6.86)
